Experimental Protocol: yeast display, Sf9 membrane polyspecificity reagent, FACS + sequencing; frameworks hold sequencing errors
Parameter: polyreactivity (PSR sort gate)

These solved cases illustrate the format of a correct answer.
What the record says about `QVQLVESGGGLVQAGGSLRLSCAASGSTIPSNAMGWYRQAPGKERELVASITYSDGTTRYADSVKGRFTISRDNAKNTVYLLMNSLKPEDTAVYYCNAVYYREGMDYWGLGTQVTVSS` : polyreactivity (PSR sort gate) is low polyreactivity

What the record says about `QVQLVESGGGLVQAGGSLRLSCAASGRTFPRNGMGWYRQAAGKERELVAAICWSGGRTYYADSVKGRFTISRDNAKNTVYLQMNSLKPEDTAVYYCNALYFRKGGYWGQGTQVTVSS` : polyreactivity (PSR sort gate) is high polyreactivity

What the record says about `QVQLEVSGGGLVQAGRSLRLSCAASGSTFYGYAMGWYRQAPGKERELVAAITSSGGSTYYADSVKGRFTISRDNAKNTVYLQMNSLKPEDTAVYYCNAKRAPWGTLYNYWGQGTQVTVSS` : polyreactivity (PSR sort gate) is high polyreactivity

What the record says about `QVQLVESGGGLVQAGGSLRLSCAASGSTFAPNAMGWYRQAPGKEKEIVSGITWGDSTYYADSVKGRFTISRDNAKNTVYLQMNSLKPEDTAVYYCAVRWVWNPWGIQGDWAVDYDYWGQGTQVTVSS` : polyreactivity (PSR sort gate) is low polyreactivity

Provide the reported polyreactivity (PSR sort gate) of each entry below, same order.
1. QVQLVESGGGLVQAGGSLRLSCAASGSTFYYYTMGWYRQAPGKEREFVAAITVGGGSTYYADSEKGRFTISRDNAKNTVYLQMNSLKPEDTAVYYCAKEVGRYLGTVSYEYDYWGQGTQVTVSS
2. QVQLVESGVGLVQAGGSLRLSCAASGRTFSTNAMGWYIQAPGKERELVAAITSRGGSTYYADSVKGRFTISRDNAKNTVYLQMNSLKPEDTAVYYCAVDPLYSKTHYVTLGYYYWGQGTQVTVSS
3. QVQLVESGGGLVQAGGSLRLSCAASGSIFSSYAMGWYRQAPGKERALVAGISRRGGSTYYADSVKGRFTISRDNAKNTVYLQMNSLKPEDTAVYYCNARSAGSDLDYWGQGTQVTVSS
4. QVQLVESGGGLVQAGGSLRLSCAASGRIFGRYAMGRYRQAPGKERELVAAISSTVGSTYYADSVKGRFTISRDNAKNTVDLQMNSLKPEDTAVYYCATVWYGSYYWATEYWGQGTQVTVSS
5. QVQLQESGGGLVQVGGSLRLSFAASGTIFIYGFLGWNLQAPGKERELVASINLGGITNYADSVKGRFTISRDNAKNTVYLQMLSLKPEDTAVYYCAAYVVTGQNYGYWGQGTQVTVSS

Result:
1: high polyreactivity; 2: low polyreactivity; 3: high polyreactivity; 4: high polyreactivity; 5: low polyreactivity

Provide the reported polyreactivity (PSR sort gate) of each entry below, same order.
1. QVQLVESGGGLVQAGGSLRLSCAASGFIFTPYTMGWYRQAPGKERELVAAITDGSSTYYADSVKGRFTISRDNAKNTVYLQMNSLKPEDTAVYYCNADGKPPYISWLYDYWGQGTQVTVSS
2. QVQLVESGGGLVQAGGSLSLSCAASGFTFGRNAMGWYRQAPGKERELVASIDWSGGSTYYADSVKGRFTISRDNAKNTVYLQMNSLKPEDTAVYYCAVGPNSVGNRSYGFDYWGQGTQVTVSS

Result:
1: low polyreactivity; 2: low polyreactivity
